target: Heat shock protein HSP 90-alpha (Homo sapiens); assay: Displacement of GM-FITC from full-length recombinant human Hsp90-alpha after 4 hrs by fluorescence polarization assay
assay endpoint: pIC50
Please report pIC50 as the negative decimal logarithm of the molar concentration, giving only the number.

structure_string=CC(C)c1cc(-n2nncc2-c2ccc(CN3CCN(Cc4ccccc4)CC3)cc2)c(O)cc1O reported_measurement=7.57

**Query** Provide value of pIC50 for this record tested with Heat shock protein HSP 90-alpha (Homo sapiens): CC(C)c1cc(-n2nncc2-c2ccc(CN3CCN(c4ccccc4)CC3)cc2)c(O)cc1O
**Result** 7.44

**Query** What measured pIC50 is associated with CC(C)c1cc(-n2nnc(C(=O)NCCCl)c2-c2ccc(CN3CCOCC3)cc2)c(O)cc1O on Heat shock protein HSP 90-alpha (Homo sapiens)?
**Result** 7.77

**Query** Give pIC50 (Heat shock protein HSP 90-alpha (Homo sapiens)) of the following molecule: CC(C)c1cc(-n2nncc2-c2ccc(CN3CCOCC3)cc2)c(O)cc1O
**Result** 7.46

**Query** Param readout = pIC50; param system = Heat shock protein HSP 90-alpha (Homo sapiens); param query = CCNC(=O)c1nnn(-c2cc(C(C)C)c(O)cc2O)c1-c1ccc(CNC2CCCCC2)cc1 ; response: value
**Result** 8.17

====

target: Heat shock protein HSP 90-alpha (Homo sapiens, UniProt P07900); assay: Displacement of GM-FITC from full-length recombinant human Hsp90-alpha after 4 hrs by fluorescence polarization assay
In this section, each of the molecules is paired with its reported IC50.

Check out these entries, answers already filled in.
structure_string=CCNC(=O)c1nnn(-c2cc(C(C)C)c(O)cc2O)c1-c1ccc(CN2CCC(N(C)C)CC2)cc1 assay_endpoint=IC50 reported_measurement="< 5 nM"
structure_string=CCNC(=O)c1nnn(-c2cc(C(C)C)c(O)cc2O)c1-c1ccc(CN2CCOCC2)cc1 assay_endpoint=IC50 reported_measurement="< 5 nM"

**Query** What IC50 value was documented for this molecule, CCNC(=O)c1nnn(-c2cc(C(C)C)c(OC(C)=O)cc2OC(C)=O)c1-c1ccc(CN2CCOCC2)cc1 ?
**Result** > 1000 nM

====

biological target: Heat shock protein HSP 90-alpha (Homo sapiens); test: Displacement of GM-FITC from full-length recombinant human Hsp90-alpha after 4 hrs by fluorescence polarization assay
assay endpoint: IC50

structure_string=CCNC(=O)c1nnn(-c2cc(C(C)C)c(O)cc2O)c1-c1ccc(CN2CCN(C)CC2)cc1 reported_measurement="< 5 nM"
structure_string=CCNC(=O)c1nnn(-c2cc(C(C)C)c(O)cc2O)c1-c1ccc(CN2CCCC2)cc1 reported_measurement="< 5 nM"

**Query** What does the record list as IC50 for CCNC(=O)c1nnn(-c2cc(C(C)C)c(O)cc2O)c1-c1ccc(CN(CC)CCO)cc1 ?
**Result** < 5 nM

**Query** What value of IC50 has been recorded for this entry: CCNC(=O)c1nnn(-c2cc(C(C)C)c(O)cc2O)c1-c1ccc(CN2CCNCC2)cc1
**Result** < 5 nM

Hey, just so you know, these numbers are from ChEMBL document CHEMBL3232837.
